- System: C33A
- measurement.notes: Primary qHTS to identify gynecologic anti-cancer compounds using libraries of approved drugs and bioactive compounds (AID 1345084); note: nearly all actives have a fitted effect of over 55% in size
- setup.conditions: Gynecologic cancer cell panel viability, ATPlite luminescence, 48 h; series mostly up to 57.5 µM
Results filed as inconclusive are left out. Active and inactive are the calls of the source. Calls come from the whole dose curve; as a rule, active = well fitted cell-killing curve with a large enough effect; inconclusive = small, poorly fitted or top-dose-only effect, or effect the other way; inactive = flat fitted curve, though single readings scatter.
Would you mind answering with one of these outcomes? 1.0 = active, 0.0 = inactive

Worked examples follow.
[[record]]
compound = "COc1ccc(NC(=O)C2C[C@H](C)CC[C@H]2C(C)C)cc1 (some centres undefined)"
assigned_label = 0.0

[[record]]
compound = "N#CC(CCCN1CCN(/N=C/c2cccnc2)CC1)(c1ccccc1)c1ccccc1"
assigned_label = 0.0

[[record]]
compound = "COC(=O)c1cc2c(C(F)(F)F)cc(-c3ccccc3)cc2n1O"
assigned_label = 0.0


[ask] What is the recorded call for this compound in the test? CCCNCCc1ccc(NS(=O)(=O)c2ccc(OC(F)(F)F)cc2)cc1
[reply] 0.0

[ask] What is the recorded call for this compound in the test? COc1cc(N2CCC(O)CC2)ccc1Nc1nc(Nc2ccccc2S(=O)(=O)C(C)C)c2[nH]cnc2n1
[reply] 0.0

From: PubChem BioAssay (NCATS)
